Tested on: SH-SY5Y
Assay: Neuroprotective activity against STZ induced cell death of human SH-SY5Y cells after 24 hrs by MTT assay
Type: functional, cell-based
Form field: EC50 (one value per entry).
Only the number, expressed in µM, is required.

compoundStructure | EC50 (µM)
COc1ccc(Cl)cc1N(CC(=O)Nc1cccc2c1[nH]c1ccccc12)S(=O)(=O)c1ccccc1 | 6.56
COc1ccccc1NC(=O)CN(c1cc(Cl)ccc1OC)S(=O)(=O)c1ccccc1 | 15.5

Input: Observed EC50 on SH-SY5Y for CC12CC3CC(C)(C1)CC(NC(=O)CN(c1cccc(Cl)c1)S(=O)(=O)c1ccccc1)(C3)C2 , please.
Output: 12.3

---

Tested on: SH-SY5Y
Assay: Neuroprotective activity against STZ induced cell death of human SH-SY5Y cells after 24 hrs by MTT assay
Assay type: functional, cell-based
pEC50: −log10 of the molar value.
The following compounds are shown together with reported pEC50 values.

Input: For the compound shown here, COc1ccc(Cl)cc1N(CC(=O)Nc1ccc(C(F)(F)F)cc1)S(=O)(=O)c1ccccc1 , give the reported pEC50.
Output: 5.43

Input: # repeat for COc1ccc(Cl)cc1N(CC(=O)NC12CC3CC(C)(CC(C)(C3)C1)C2)S(=O)(=O)c1ccc(Cl)cc1
Output: < 4.70

Input: Query COc1ccc(CNC(=O)CN(c2cc(Cl)ccc2OC)S(=O)(=O)c2ccccc2)cc1 next
Output: < 4.70

Input: Check Cc1c(Cl)cccc1N(CC(=O)NC12CC3CC(C)(CC(C)(C3)C1)C2)S(=O)(=O)c1ccccc1 too.
Output: < 4.70

Input: What do you get for COc1ccc(Cl)cc1N(CC(=O)NC12CC3CC(C)(CC(C)(C3)C1)C2)S(=O)(=O)c1ccc(C)cc1 ?
Output: < 4.70

Input: Record: COc1ccc(Cl)cc1N(CC(=O)Nc1ccc2[nH]c3ccccc3c2c1)S(=O)(=O)c1ccccc1
Output: 5.56

Input: Follow-up entry: CCCNC(=O)CN(c1cc(Cl)ccc1OC)S(=O)(=O)c1ccccc1
Output: < 4.70

Input: Also check COc1ccc(Cl)cc1N(CC(=O)N1CCc2ccccc21)S(=O)(=O)c1ccccc1
Output: < 4.70

Input: Now consider CC12CC3CC(C)(C1)CC(NC(=O)CN(C1CCCCC1)S(=O)(=O)c1ccccc1)(C3)C2 and answer again.
Output: < 4.70

---

Parameter: EC50. Scope: all listed entries.
System: SH-SY5Y
Assay: Neuroprotective activity against STZ induced cell death of human SH-SY5Y cells after 24 hrs by MTT assay
Assay type: functional, cell-based
Write it as a number; the unit µM goes unstated.

compoundStructure | number
Cc1ccc(N(CC(=O)NC23CC4CC(C)(CC(C)(C4)C2)C3)S(=O)(=O)c2ccccc2)cc1Cl | 8.86
COc1ccc(Cl)cc1N(CC(=O)NC12CC3CC(C)(CC(C)(C3)C1)C2)S(=O)(=O)c1ccccc1 | 0.22

Field: next molecule
Input: Give the reported EC50 for COc1ccc(Cl)cc1N(CC(=O)N1CCCCC1)S(=O)(=O)c1ccccc1 (system: SH-SY5Y).
Output: 14.5

---

Tested on: SH-SY5Y
Test: Neuroprotective activity against STZ induced cell death of human SH-SY5Y cells after 24 hrs by MTT assay
Type: functional, cell-based
experimentalEndpoint: EC50 (µM)
Quick reminder: number only, in µM, skip the unit.

Input: Return EC50 measured with SH-SY5Y given this compound: CCn1c2ccccc2c2cc(NC(=O)CN(c3cc(Cl)ccc3OC)S(=O)(=O)c3ccccc3)ccc21
Output: 0.25

Input: Also, COc1ccc(Cl)cc1N(CC(=O)N(C1CCCCC1)C1CCCCC1)S(=O)(=O)c1ccccc1 please.
Output: 14.3

Input: Also COc1ccc(Cl)cc1N(CC(=O)Nc1cccc2c3ccccc3n(C)c12)S(=O)(=O)c1ccccc1 ?
Output: 3.18

Input: And CCn1ccc2cc(NC(=O)CN(c3cc(Cl)ccc3OC)S(=O)(=O)c3ccccc3)ccc21 ?
Output: 2.22

---

# Lookup of reported EC50 keyed by entry
Test system: SH-SY5Y
Assay: Neuroprotective activity against STZ induced cell death of human SH-SY5Y cells after 24 hrs by MTT assay
Assay type: functional, cell-based
# output: bare number, implied unit µM

// worked examples, EC50 included
compoundStructure | resultUnits | EC50
COc1ccc(Cl)cc1N(CC(=O)Nc1cccc2ccccc12)S(=O)(=O)c1ccccc1 | µM | 17.4
COc1ccc(NC(=O)CN(c2cc(Cl)ccc2OC)S(=O)(=O)c2ccccc2)cc1 | µM | 16.2
COc1ccc(Cl)cc1N(CC(=O)Nc1ccc2c(c1)c1ccccc1n2C)S(=O)(=O)c1ccccc1 | µM | 1.32
COc1ccc(Cl)cc1N(CC(=O)Nc1ccc([N+](=O)[O-])cc1)S(=O)(=O)c1ccccc1 | µM | 8.21
CC12CC3CC(C)(C1)CC(NC(=O)CN(c1ccccc1Cl)S(=O)(=O)c1ccccc1)(C3)C2 | µM | 16.1

Input: # get_value(readout='EC50', item= COc1cccc(NC(=O)CN(c2cc(Cl)ccc2OC)S(=O)(=O)c2ccccc2)c1 )
Output: 17.6

Input: Also COc1ccc(Cl)cc1N(CC(=O)NC1CCCCC1)S(=O)(=O)c1ccccc1 , if possible.
Output: 17.6
